Test: Dissociation constant, pKa at pH 6 to 9.5
Format: physicochemical
Items are presented alongside their recorded pKa.
Please reply with the value in numeric form only.

Answered cases to consult:
- Compound: "Nc1ncnc2c1ncn2[C@@H]1O[C@H](COP(=O)(O)OP(=O)(O)O)[C@@H](O)[C@H]1O [ADENOSINE DIPHOSPHATE]"
  pKa: 6.4
- Compound: "Nc1ncnc2c1ncn2[C@@H]1O[C@H](COP(=O)(O)OP(=O)(O)S)[C@@H](O)[C@H]1O (some centres undefined)"
  pKa: 5.8
- Compound: "Nc1ncnc2c1ncn2[C@@H]1O[C@H](COP(O)(O)=S)[C@@H](O)[C@H]1O"
  pKa: 7.7

Switching to the query record.
Lookup: Entry Nc1ncnc2c1ncn2[C@@H]1O[C@H](COP(=O)(O)O)[C@@H](O)[C@H]1O [ADENOSINE PHOSPHATE] has what pKa?
Found: 8.1

====

Assay: Binding affinity to Mycobacterium tuberculosis adenosine-5'-phosphosulfate reductase assessed as S-sulfocysteine formation at pH 7.5 by single turnover method in absence of MgCl2
Quantity: pKd
pKd (log units): -log10 of the concentration in mol/L.

- Compound: "Nc1ncnc2c1ncn2[C@@H]1O[C@H](COP(=O)(O)O)[C@@H](O)[C@H]1O [ADENOSINE PHOSPHATE]"
  pKd: 5.27

Lookup: For the compound shown here, Nc1ncnc2c1ncn2[C@@H]1O[C@H](COP(=O)(O)OP(=O)(O)O)[C@@H](O)[C@H]1O [ADENOSINE DIPHOSPHATE] , give the reported pKd.
Found: 5.37

====

Collected Kd values appear next to each entry.
Test: Binding affinity to Mycobacterium tuberculosis adenosine-5'-phosphosulfate reductase assessed as S-sulfocysteine formation at pH 7.5 by single turnover method
Please reply with the bare figure in µM and do not write the unit itself.

Some solved entries appear below for comparison.
- Substance Smiles: "Nc1ncnc2c1ncn2[C@@H]1O[C@H](COP(N)(=O)O)[C@@H](O)[C@H]1O"
  Kd / µM: 100
- Substance Smiles: "Nc1ncnc2c1ncn2[C@@H]1O[C@H](COP(=O)(O)NP(=O)(O)O)[C@@H](O)[C@H]1O"
  Kd / µM: 257

Lookup: Recorded Kd of Nc1ncnc2c1ncn2[C@@H]1O[C@H](COP(=O)(O)OP(N)(=O)O)[C@@H](O)[C@H]1O , please.
Found: 410

====

Assay: Binding affinity to Mycobacterium tuberculosis adenosine-5'-phosphosulfate reductase assessed as S-sulfocysteine formation at pH 5.5 by single turnover method in absence of thioredoxin
pKd: −log10 of the molar value.
pKd of 4 or higher: rule met. Under 4: rule not met.

Previously resolved entries follow.
- Compound: "Nc1ncnc2c1ncn2[C@@H]1O[C@H](COP(=O)(O)C(F)(F)P(=O)(O)O)[C@@H](O)[C@H]1O"
  Label Class: "rule met"
- Compound: "Nc1ncnc2c1ncn2[C@@H]1O[C@H](COP(=O)(S)OP(=O)(O)O)[C@@H](O)[C@H]1O (stereo not given in full)"
  Label Class: "rule met"
- Compound: "O[C@@H]1[C@H](O)[C@H](O)CO[C@H]1O"
  Label Class: "rule not met"

Would you kindly look at the next entry?
Lookup: # bool: pKd of O=P(O)(O)O >= 4
Found: rule not met

====

Reported pKd values for the following compounds.
Experiment: Binding affinity to Mycobacterium tuberculosis adenosine-5'-phosphosulfate reductase assessed as S-sulfocysteine formation at pH 5.5 by single turnover method in absence of thioredoxin
Give only the number. pKd is defined as minus log10 of concentration in molar units.

- Substance Smiles: "Nc1ncnc2c1ncn2[C@@H]1O[C@H](COP(=O)(O)OP(N)(=O)O)[C@@H](O)[C@H]1O"
  Measured Result: 3.39

Lookup: What pKd value was documented for this compound, Nc1ncnc2c1ncn2[C@@H]1O[C@H](COP(O)(O)=S)[C@@H](O)[C@H]1O ?
Found: 5.48
